Origin of values: patent US9586951B2

Reported pIC50 values for a set of molecules
- tested_target: ATM (Homo sapiens)
- Construct: detecting phosphorylation of Chk2 in a human non-small cell lung cancer cell line NCI-H460 (ATCC company); host or cells: NCI-H460 human non-small cell lung cancer cells
- assay_comment: ATM inhibition test (phosphorylation of Chk2 generated by ionizing radiation, AlphaScreen SureFire)
- Assay type: cell-based
- condition: phosphorylated Chk2 in NCI-H460 cells, ionizing radiation 8Gy, 1 hour after test compound treatment; read-out: ATM inhibitory activity
pIC50: −log10 of the molar value.

A selection of reference data follows.
- molecule: "O=C(CN1CCOCC1)Nc1ccc2c(c1)Sc1cccc(-c3cc(N4CCOCC4)cc(=O)[nH]3)c1S2"
  measurement: "6.30 to 7.00"
- molecule: "CC(CN1CCCCC1)Nc1ccc2c(c1)Sc1cccc(-c3cc(N4CCOCC4)cc(=O)[nH]3)c1S2 (stereo not shown)"
  measurement: "> 7.00"
- molecule: "Cc1cccc(C(Nc2ccc3c(c2)Sc2cccc(-c4cc(N5CCOCC5)cc(=O)[nH]4)c2S3)C2CCCNC2)n1 (stereo not shown)"
  measurement: "5.70 to 6.30"
- molecule: "O=c1cc(N2CCOCC2)cc(-c2cccc3c2Oc2ccc(NCc4cncc(C5=CCCC5)c4)cc2C3)[nH]1"
  measurement: "6.30 to 7.00"
- molecule: "O=c1cc(N2CCOCC2)cc(-c2cccc3c2Oc2ccc(NCc4ccsc4)cc2C3)[nH]1"
  measurement: "6.30 to 7.00"

IN: Provide pIC50 value for the following molecule: CC(Nc1ccc2c(c1)Sc1cccc(-c3cc(N4CCOCC4)cc(=O)[nH]3)c1S2)c1cccc(CN2CCCC2)n1 (stereo not shown)
OUT: 5.70 to 6.30

IN: Provide pIC50 value for the following molecule: O=c1cc(N2CCOCC2)cc(-c2cccc3c2Oc2ccc(NCc4cc(C5CC5)ccn4)cc2C3)[nH]1
OUT: > 7.00

---

Reported IC50 values for a set of compounds
- tested_target: ATM (Homo sapiens)
- Construct: detecting phosphorylation of Chk2 in a human non-small cell lung cancer cell line NCI-H460 (ATCC company); host or cells: NCI-H460 human non-small cell lung cancer cells
- assay_comment: ATM inhibition test (phosphorylation of Chk2 generated by ionizing radiation, AlphaScreen SureFire)
- Assay type: cell-based
- condition: phosphorylated Chk2 in NCI-H460 cells, ionizing radiation 8Gy, 1 hour after test compound treatment; read-out: ATM inhibitory activity

A selection of reference data follows.
- compound: "Cc1cc(CNc2ccc3c(c2)Sc2cccc(-c4cc(N5CCOCC5)cc(=O)[nH]4)c2S3)ccn1"
  measurement: "100 to 500 nM"
- compound: "CNc1ncccc1CNc1ccc2c(c1)Cc1cccc(-c3cc(N4CCOCC4)cc(=O)[nH]3)c1O2"
  measurement: "100 to 500 nM"
- compound: "O=c1cc(N2CCOCC2)cc(-c2cccc3c2Oc2ccc(Nc4cccnc4)cc2C3)[nH]1"
  measurement: "500 to 2000 nM"
- compound: "O=C(CN1C2CCC1COC2)Nc1ccc2c(c1)Sc1cccc(-c3cc(N4CCOCC4)cc(=O)[nH]3)c1S2"
  measurement: "100 to 500 nM"
- compound: "COc1cncc(C(C)Nc2ccc3c(c2)Sc2cccc(-c4cc(N5CCOCC5)cc(=O)[nH]4)c2O3)c1 (centres unmarked)"
  measurement: "100 to 500 nM"

IN: Give measured IC50 for Cc1ccnc(CN2CCC(Nc3ccc4c(c3)Cc3cccc(-c5cc(N6CCOCC6)cc(=O)[nH]5)c3O4)CC2)c1 (ATM (Homo sapiens)).
OUT: 100 to 500 nM

IN: Give measured IC50 for Cc1cnc(C(C)Nc2ccc3c(c2)Sc2cccc(-c4cc(N5CCOCC5)cc(=O)[nH]4)c2S3)cn1 (centres unmarked) [Example 1-12-64] (ATM (Homo sapiens)).
OUT: < 100 nM

IN: Give measured IC50 for O=c1cc(N2CCOCC2)cc(-c2cccc3c2Oc2ccc(NCc4cncs4)cc2C3)[nH]1 (ATM (Homo sapiens)).
OUT: 500 to 2000 nM

IN: Give measured IC50 for Cc1ccc(C(Nc2ccc3c(c2)Sc2cccc(-c4cc(N5CCOCC5)cc(=O)[nH]4)c2S3)C2CCC2)nc1 (centres unmarked) (ATM (Homo sapiens)).
OUT: 100 to 500 nM

IN: Give measured IC50 for CCCN1CCC(Nc2ccc3c(c2)Cc2cccc(-c4cc(N5CCOCC5)cc(=O)[nH]4)c2O3)CC1 (ATM (Homo sapiens)).
OUT: < 100 nM

IN: Give measured IC50 for Cc1csc(CNc2ccc3c(c2)Sc2cccc(-c4cc(N5CCOCC5)cc(=O)[nH]4)c2S3)c1 (ATM (Homo sapiens)).
OUT: 100 to 500 nM

IN: Give measured IC50 for CC(Nc1ccc2c(c1)Cc1cccc(-c3cc(N4CCOCC4)cc(=O)[nH]3)c1O2)c1nccc(CF)n1 (centres unmarked) [Example 2-14-64] (ATM (Homo sapiens)).
OUT: 100 to 500 nM

IN: Give measured IC50 for COC[C@H](CN1CCO[C@@H](C)C1)Nc1ccc2c(c1)Sc1cccc(-c3cc(N4CCOCC4)cc(=O)[nH]3)c1S2 (ATM (Homo sapiens)).
OUT: < 100 nM

IN: Give measured IC50 for COCC(Nc1ccc2c(c1)Sc1cccc(-c3cc(N4CCOCC4)cc(=O)[nH]3)c1S2)c1ccc(C)cn1 (centres unmarked) (ATM (Homo sapiens)).
OUT: < 100 nM

---

Reported IC50 values for a set of compounds
- tested_target: ATM (Homo sapiens)
- Construct: detecting phosphorylation of Chk2 in a human non-small cell lung cancer cell line NCI-H460 (ATCC company); host or cells: NCI-H460 human non-small cell lung cancer cells
- assay_comment: ATM inhibition test (phosphorylation of Chk2 generated by ionizing radiation, AlphaScreen SureFire)
- Format: cell-based
- condition: phosphorylated Chk2 in NCI-H460 cells, ionizing radiation 8Gy, 1 hour after test compound treatment; read-out: ATM inhibitory activity

A selection of reference data follows.
- compound: "Cc1ccc(CNc2ccc3c(c2)Sc2cccc(-c4cc(N5CCOCC5)cc(=O)[nH]4)c2S3)cn1"
  IC50: "< 100 nM"
- compound: "Cc1ccc(C(Nc2ccc3c(c2)Sc2cccc(-c4cc(N5CCOCC5)cc(=O)[nH]4)c2S3)C2CCN(C)CC2)nc1 (stereo not drawn) [Example 1-35]"
  IC50: "< 100 nM"
- compound: "COc1cncc(CN2CCC(Nc3ccc4c(c3)Cc3cccc(-c5cc(N6CCOCC6)cc(=O)[nH]5)c3O4)CC2)n1"
  IC50: "< 100 nM"
- compound: "O=c1cc(N2CCOCC2)cc(-c2cccc3c2Oc2ccc(NCc4cnccc4Cl)cc2C3)[nH]1"
  IC50: "100 to 500 nM"
- compound: "CC(Nc1ccc2c(c1)Sc1cccc(-c3cc(N4CCOCC4)cc(=O)[nH]3)c1S2)c1cc(Cl)ncn1 (stereo not drawn)"
  IC50: "100 to 500 nM"

IN: Provide IC50 value for the following compound: O=c1cc(N2CCOCC2)cc(-c2ccc(F)c3c2Oc2ccc(NCc4cc(C5CC5)ccn4)cc2C3)[nH]1
OUT: 100 to 500 nM

IN: Provide IC50 value for the following compound: Cc1nccc(C(C)Nc2ccc3c(c2)Cc2cccc(-c4cc(N5CCOCC5)cc(=O)[nH]4)c2O3)n1 (stereo not drawn)
OUT: 100 to 500 nM

IN: Provide IC50 value for the following compound: COc1ccc(CNc2ccc3c(c2)Sc2cccc(-c4cc(N5CCOCC5)cc(=O)[nH]4)c2O3)nc1
OUT: < 100 nM

IN: Provide IC50 value for the following compound: O=c1cc(N2CCOCC2)cc(-c2cccc3c2Sc2ccc(NC4CCCN(C5CCOCC5)C4)cc2S3)[nH]1 (stereo not drawn)
OUT: 100 to 500 nM

IN: Provide IC50 value for the following compound: O=c1cc(N2CCOCC2)cc(-c2cccc3c2Oc2ccc(NCc4ccnc(Br)c4)cc2C3)[nH]1
OUT: < 100 nM

---

Reported pIC50 values for a set of molecules
- tested_target: ATM (Homo sapiens, UniProt Q13315)
- Construct: detecting phosphorylation of Chk2 in a human non-small cell lung cancer cell line NCI-H460 (ATCC company); host or cells: NCI-H460 human non-small cell lung cancer cells
- Sequence (Q13315 whole entry): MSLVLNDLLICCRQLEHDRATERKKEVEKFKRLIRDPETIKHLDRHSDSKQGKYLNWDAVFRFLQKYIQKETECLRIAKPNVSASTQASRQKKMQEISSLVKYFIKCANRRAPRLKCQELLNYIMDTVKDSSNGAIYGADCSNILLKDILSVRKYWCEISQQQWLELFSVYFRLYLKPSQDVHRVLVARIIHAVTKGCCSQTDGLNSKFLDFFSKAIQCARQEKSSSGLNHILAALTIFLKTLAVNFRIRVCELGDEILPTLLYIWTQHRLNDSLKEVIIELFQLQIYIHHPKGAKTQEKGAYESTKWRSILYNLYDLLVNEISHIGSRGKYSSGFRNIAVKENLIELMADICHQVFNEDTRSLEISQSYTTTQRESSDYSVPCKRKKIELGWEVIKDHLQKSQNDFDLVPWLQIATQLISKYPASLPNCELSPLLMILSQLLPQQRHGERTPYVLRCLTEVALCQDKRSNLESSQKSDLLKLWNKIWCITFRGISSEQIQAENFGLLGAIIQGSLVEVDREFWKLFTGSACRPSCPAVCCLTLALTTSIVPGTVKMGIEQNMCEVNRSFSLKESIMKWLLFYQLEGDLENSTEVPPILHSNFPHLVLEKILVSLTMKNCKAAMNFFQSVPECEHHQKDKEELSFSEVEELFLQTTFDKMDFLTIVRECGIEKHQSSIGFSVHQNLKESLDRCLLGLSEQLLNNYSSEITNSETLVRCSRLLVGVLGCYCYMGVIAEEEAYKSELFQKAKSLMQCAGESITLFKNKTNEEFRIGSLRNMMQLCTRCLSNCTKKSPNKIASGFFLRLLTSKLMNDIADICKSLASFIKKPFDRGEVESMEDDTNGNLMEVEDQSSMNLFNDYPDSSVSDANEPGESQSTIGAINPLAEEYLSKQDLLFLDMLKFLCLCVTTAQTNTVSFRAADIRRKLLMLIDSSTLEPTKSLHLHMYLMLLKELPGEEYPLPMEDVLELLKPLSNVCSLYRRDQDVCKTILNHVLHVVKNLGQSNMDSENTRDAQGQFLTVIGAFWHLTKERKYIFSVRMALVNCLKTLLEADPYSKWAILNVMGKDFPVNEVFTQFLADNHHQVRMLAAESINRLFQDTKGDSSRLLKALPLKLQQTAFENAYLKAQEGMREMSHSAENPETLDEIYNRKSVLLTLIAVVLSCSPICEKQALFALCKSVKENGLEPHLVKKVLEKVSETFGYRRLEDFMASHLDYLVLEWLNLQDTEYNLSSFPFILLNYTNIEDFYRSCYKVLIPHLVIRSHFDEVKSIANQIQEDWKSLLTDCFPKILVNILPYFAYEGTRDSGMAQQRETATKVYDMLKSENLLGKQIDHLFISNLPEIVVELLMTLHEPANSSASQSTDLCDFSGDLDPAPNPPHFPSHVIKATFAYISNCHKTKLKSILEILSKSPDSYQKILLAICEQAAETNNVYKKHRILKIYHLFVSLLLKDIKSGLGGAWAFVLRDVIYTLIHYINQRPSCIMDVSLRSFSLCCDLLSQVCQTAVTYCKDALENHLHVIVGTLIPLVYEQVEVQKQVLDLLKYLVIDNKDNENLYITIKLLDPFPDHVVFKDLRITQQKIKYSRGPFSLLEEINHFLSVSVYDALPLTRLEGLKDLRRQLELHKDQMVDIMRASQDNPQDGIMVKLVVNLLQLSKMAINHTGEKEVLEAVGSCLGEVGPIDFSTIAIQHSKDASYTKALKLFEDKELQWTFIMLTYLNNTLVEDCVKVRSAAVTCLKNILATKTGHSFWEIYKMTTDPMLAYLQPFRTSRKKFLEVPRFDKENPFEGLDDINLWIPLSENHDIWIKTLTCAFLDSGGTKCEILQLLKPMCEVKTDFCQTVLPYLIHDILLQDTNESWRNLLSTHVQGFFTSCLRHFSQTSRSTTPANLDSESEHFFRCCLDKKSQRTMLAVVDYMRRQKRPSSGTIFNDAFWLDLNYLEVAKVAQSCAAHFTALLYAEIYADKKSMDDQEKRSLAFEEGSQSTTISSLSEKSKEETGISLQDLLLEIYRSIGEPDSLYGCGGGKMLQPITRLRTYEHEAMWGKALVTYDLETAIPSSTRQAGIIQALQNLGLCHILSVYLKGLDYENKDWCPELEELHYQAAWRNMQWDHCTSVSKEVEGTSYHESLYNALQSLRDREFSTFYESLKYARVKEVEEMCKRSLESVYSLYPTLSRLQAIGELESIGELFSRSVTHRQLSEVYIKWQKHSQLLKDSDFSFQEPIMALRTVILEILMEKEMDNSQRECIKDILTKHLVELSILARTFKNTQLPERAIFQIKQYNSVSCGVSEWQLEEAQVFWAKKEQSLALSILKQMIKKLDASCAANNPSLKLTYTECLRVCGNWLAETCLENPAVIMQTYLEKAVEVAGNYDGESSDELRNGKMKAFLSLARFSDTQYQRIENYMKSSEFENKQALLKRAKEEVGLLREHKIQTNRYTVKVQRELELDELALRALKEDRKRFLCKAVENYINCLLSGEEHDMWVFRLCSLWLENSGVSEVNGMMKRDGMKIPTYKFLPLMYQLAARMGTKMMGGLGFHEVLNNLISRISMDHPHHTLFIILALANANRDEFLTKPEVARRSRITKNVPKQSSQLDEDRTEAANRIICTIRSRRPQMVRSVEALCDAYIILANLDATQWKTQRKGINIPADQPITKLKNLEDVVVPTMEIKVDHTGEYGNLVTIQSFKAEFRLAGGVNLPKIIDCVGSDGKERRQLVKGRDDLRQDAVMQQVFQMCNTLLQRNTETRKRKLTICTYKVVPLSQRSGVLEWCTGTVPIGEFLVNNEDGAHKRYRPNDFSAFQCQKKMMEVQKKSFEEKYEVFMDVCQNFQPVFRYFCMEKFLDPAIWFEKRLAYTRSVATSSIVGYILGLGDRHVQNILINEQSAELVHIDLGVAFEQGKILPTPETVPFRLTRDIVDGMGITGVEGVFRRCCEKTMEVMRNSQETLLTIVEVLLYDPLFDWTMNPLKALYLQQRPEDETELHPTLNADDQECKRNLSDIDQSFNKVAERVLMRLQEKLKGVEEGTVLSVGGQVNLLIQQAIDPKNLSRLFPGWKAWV
- assay_comment: ATM inhibition test (phosphorylation of Chk2 generated by ionizing radiation, AlphaScreen SureFire)
- Assay type: cell-based
- condition: phosphorylated Chk2 in NCI-H460 cells, ionizing radiation 8Gy, 1 hour after test compound treatment; read-out: ATM inhibitory activity
pIC50: −log10 of the molar value.

- molecule: "O=c1cc(N2CCOCC2)cc(-c2cccc3c2Oc2ccc(NC4CCCN(CCc5ccccc5)C4)cc2S3)[nH]1 (centres unmarked)"
  measurement: "6.30 to 7.00"
- molecule: "CN(C)c1cnc(CN(Cc2cnc(N(C)C)cn2)c2ccc3c(c2)Cc2cccc(-c4cc(N5CCOCC5)cc(=O)[nH]4)c2O3)cn1"
  measurement: "> 7.00"
- molecule: "COCC(=O)N1CCC(Nc2ccc3c(c2)Sc2cccc(-c4cc(N5CCOCC5)cc(=O)[nH]4)c2S3)CC1"
  measurement: "5.70 to 6.30"

IN: Provide pIC50 value for the following molecule: Cc1cncc(C(C)Nc2ccc3c(c2)Sc2cccc(-c4cc(N5CCOCC5)cc(=O)[nH]4)c2S3)c1 (centres unmarked)
OUT: > 7.00

IN: Provide pIC50 value for the following molecule: CN(C)C(=O)Nc1ncc(CNc2ccc3c(c2)Sc2cccc(-c4cc(N5CCOCC5)cc(=O)[nH]4)c2S3)cn1
OUT: 6.30 to 7.00

IN: Provide pIC50 value for the following molecule: Cc1ccnc(C(C)Nc2ccc3c(c2)Sc2cccc(-c4cc(N5CCOCC5)cc(=O)[nH]4)c2S3)n1 (single isomer, unassigned) [Example 1-12-144-2]
OUT: 6.30 to 7.00

IN: Provide pIC50 value for the following molecule: O=c1cc(N2CCOCC2)cc(-c2cccc3c2Oc2ccc(NC4CCN(CCc5ccc(F)cc5)CC4)cc2C3)[nH]1
OUT: 6.30 to 7.00

IN: Provide pIC50 value for the following molecule: CC(C)(C)OC(=O)N1CCC(Nc2ccc3c(c2)Cc2cccc(-c4cc(N5CCOCC5)cc(=O)[nH]4)c2O3)C(F)C1 (centres unmarked)
OUT: 6.30 to 7.00
